Data origin: ChEMBL document CHEMBL1147462

SUBJECT OF TEST: Melatonin receptor (Homo sapiens) (UniProt P48039+P49286)
PROTOCOL: Selectivity (pC2-PC1) was determined
Type: protein assay
ENDPOINT LABEL: Selectivity

{"columns": ["CHEMICAL SMILES", "SUBJECT OF TEST", "Selectivity"],
 "data": [
  ["CNC(=O)NCCc1c(-c2ccccc2)oc2ccc(OC)cc12", "Melatonin receptor (Homo sapiens) (UniProt P48039+P49286)", 0],
  ["CNC(=O)NCCc1c(Cc2ccccc2)oc2ccc(OC)cc12", "Melatonin receptor (Homo sapiens) (UniProt P48039+P49286)", 1.19],
  ["CCCCCCOc1ccc2oc(Cc3ccccc3)c(CCNC(C)=O)c2c1", "Melatonin receptor (Homo sapiens) (UniProt P48039+P49286)", 0.407],
  ["COc1ccc2oc(Cc3c(Cl)cccc3Cl)c(CCNC(C)=O)c2c1", "Melatonin receptor (Homo sapiens) (UniProt P48039+P49286)", 0.82],
  ["C=CC(=O)NCCc1c(Cc2cccc(OC)c2)oc2ccc(OC)cc12", "Melatonin receptor (Homo sapiens) (UniProt P48039+P49286)", 1.3]
]}

[1] C=CCC(=O)NCCc1c(-c2ccccc2)oc2ccc(OC)cc12
[2] COc1ccc2oc(-c3ccccc3)c(CCNC(=O)Cc3ccco3)c2c1
From the recorded data, which exceeds the other in Selectivity: 1 or 2 ? Choose, then provide that item's label.
1
(1: -0.301, 2: -1.45)

[1] COc1ccc2oc(-c3ccccc3)c(CCNC(C)=O)c2c1
[2] CCCC(=O)NCCc1c(Cc2ccccc2)oc2ccc(OC)cc12
[3] COc1ccc2oc(Cc3cccc(C(F)(F)F)c3)c(CCNC(C)=O)c2c1
[4] C=CC(=O)NCCc1c(-c2ccccc2)oc2ccc(OC)cc12
[5] CCCCCOc1ccc2oc(Cc3ccccc3)c(CCNC(C)=O)c2c1
Hey, can you sort those compounds up there by Selectivity, smallest first? Form field (ranking): labels in requested order.
1, 4, 5, 2, 3
(1: -0.301, 4: 0.301, 5: 0.642, 2: 1.22, 3: 1.83)

[I] COc1cccc(Cc2oc3ccccc3c2CCNC(C)=O)c1
[II] COc1ccc(Cc2oc3ccc(OC)cc3c2CCNC(C)=O)cc1
Could you please tell me which of these two has the higher Selectivity: I or II ? Answer by stating the label of the chosen item.
II
(II: 1.68, I: 1.09)
